- protocol-text: Extraction of amino acid ester from aqueous mineral acid salt solution into 1,2-dichloroethane at constant pH (Table 1)
- test-conditions: pH 7.5, 20-25 °C, 1,2-dichloroethane
experimental-readout: Percent extraction of ester in organic layer (%)
Answers are plain numbers, in %.

Here are 3 molecules together with their reported answers.
{"columns": ["molecule", "measured-value"],
 "data": [
  ["Cl.N[C@@H](Cc1ccccc1)C(=O)Oc1ccccc1 [Phenyl L-phenylalaninate hydrochloride]", 97],
  ["CCOC(=O)c1ccccc1N.Cl [Ethyl o-aminobenzoate hydrochloride]", 97],
  ["Cl.N[C@@H](Cc1ccccc1)C(=O)OCc1ccccc1 [Benzyl L-phenylalaninate hydrochloride]", 99]
]}

API: the following record is the query input.
Query: Which measured Percent extraction of ester in organic layer value corresponds to COC(=O)[C@@H](N)CO.Cl [Methyl L-serinate hydrochloride] ?
Reply: 95
